Origin of values: ChEMBL document CHEMBL2331225

# targetDesc: Telomerase reverse transcriptase (Homo sapiens, UniProt O14746)
# Sequence (O14746 whole entry): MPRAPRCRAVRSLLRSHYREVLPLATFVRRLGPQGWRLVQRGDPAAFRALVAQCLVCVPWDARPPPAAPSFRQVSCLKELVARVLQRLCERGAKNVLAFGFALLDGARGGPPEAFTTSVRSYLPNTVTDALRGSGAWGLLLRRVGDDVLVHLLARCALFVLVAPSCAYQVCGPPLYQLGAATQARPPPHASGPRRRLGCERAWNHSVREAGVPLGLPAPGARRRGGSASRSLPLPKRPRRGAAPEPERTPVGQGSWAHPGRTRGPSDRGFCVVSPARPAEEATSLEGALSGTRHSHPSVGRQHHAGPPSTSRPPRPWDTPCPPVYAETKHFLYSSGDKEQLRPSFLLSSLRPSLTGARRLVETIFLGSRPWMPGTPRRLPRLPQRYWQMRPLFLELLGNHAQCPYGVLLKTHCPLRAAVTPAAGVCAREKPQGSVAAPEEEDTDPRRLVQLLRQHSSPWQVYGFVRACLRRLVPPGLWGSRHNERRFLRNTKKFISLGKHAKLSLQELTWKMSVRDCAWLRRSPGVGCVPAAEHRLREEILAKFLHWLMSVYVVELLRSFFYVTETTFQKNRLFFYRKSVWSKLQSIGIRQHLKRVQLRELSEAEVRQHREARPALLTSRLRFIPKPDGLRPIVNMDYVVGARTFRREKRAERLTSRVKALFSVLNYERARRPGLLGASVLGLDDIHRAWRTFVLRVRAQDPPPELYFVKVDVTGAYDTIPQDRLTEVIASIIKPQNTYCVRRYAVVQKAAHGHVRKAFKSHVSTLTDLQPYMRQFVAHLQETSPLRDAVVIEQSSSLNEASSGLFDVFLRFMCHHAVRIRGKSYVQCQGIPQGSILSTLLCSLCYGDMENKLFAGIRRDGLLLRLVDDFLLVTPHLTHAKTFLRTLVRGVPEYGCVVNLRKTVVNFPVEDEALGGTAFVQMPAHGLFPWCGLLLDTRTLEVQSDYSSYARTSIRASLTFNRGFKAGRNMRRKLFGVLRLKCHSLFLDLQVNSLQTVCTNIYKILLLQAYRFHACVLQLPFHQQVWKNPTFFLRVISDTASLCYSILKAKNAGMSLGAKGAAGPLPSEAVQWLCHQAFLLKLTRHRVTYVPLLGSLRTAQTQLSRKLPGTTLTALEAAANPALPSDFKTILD
# assayInfo: Inhibition of TERT transcriptional activity in human H1299 cells assessed SEAP activity at 100 uM incubated for 24 hrs by SEAP assay
# Format: cell-based
# Parameters: scale not given: the % may be the effect or the level left
// assign condition met if Activity falls strictly below 3%, else condition not met (ties count as condition not met)

Consider the worked cases shown below.
{"columns": ["chemicalSmiles", "group"],
 "data": [
  ["O=C1c2ccccc2C(=O)c2c1ccc1nc(CN3CCN(c4ccccc4F)CC3)[nH]c21", "condition met"],
  ["O=C1c2ccccc2C(=O)c2c1ccc1nc(CN3CCN(c4ccccn4)CC3)[nH]c21", "condition met"],
  ["CC(C)N(C)Cc1nc2ccc3c(c2[nH]1)C(=O)c1ccccc1C3=O", "condition met"],
  ["CCCN(C)Cc1nc2ccc3c(c2[nH]1)C(=O)c1ccccc1C3=O", "condition met"],
  ["CN1CCN(CCc2nc3ccc4c(c3[nH]2)C(=O)c2ccccc2C4=O)CC1", "condition met"]
]}

stdin: Strictly below 3%: is that where Activity of O=C1c2ccccc2C(=O)c2c1ccc1nc(CCN3CCN(c4ccccc4)CC3)[nH]c21 sits?
stdout: condition not met

stdin: Strictly below 3%: is that where Activity of O=C1c2ccccc2C(=O)c2c1ccc1nc(CCCl)[nH]c21 sits?
stdout: condition not met
